target: CaBzz1-D1; test: SPOT peptide array binding signal intensity (averaged, normalized) (arbitrary units (background-subtracted, floor 0; scale differs between SH3 domains)); higher = stronger binding of the SH3 domain to the peptide
Entries and their SPOT peptide array binding signal intensity values follow.

Here's what some known entries look like.
What does the record list as SPOT peptide array binding signal intensity for `LRWRHKFFLPAIAAI` ?
23.2

Could you tell me which SPOT peptide array binding signal intensity is on file for `HAPPLPPTAPPPPSL` ?
2

// lookup SPOT peptide array binding signal intensity for `APERAVPILPPRNNV`
≤ 0

What does the record list as SPOT peptide array binding signal intensity for `IKTRSVPKIPSIESV` ?
197

Would you kindly share the measured SPOT peptide array binding signal intensity for `IHTRRPSSTSQYLIR` ?
249

Switching to the query record.
Field request: SPOT peptide array binding signal intensity | item: `RRRDFGAPANKRPRR`
116
